Cited source for all entries: the supplement of paper PMC7877785

test: self-splicing fitness, log relative to wild type (ln ratio); higher = more splicing; Tetrahymena group I intron in knt gene, E. coli kanamycin selection, DiMSum; sequences stand for … in CUCUCU…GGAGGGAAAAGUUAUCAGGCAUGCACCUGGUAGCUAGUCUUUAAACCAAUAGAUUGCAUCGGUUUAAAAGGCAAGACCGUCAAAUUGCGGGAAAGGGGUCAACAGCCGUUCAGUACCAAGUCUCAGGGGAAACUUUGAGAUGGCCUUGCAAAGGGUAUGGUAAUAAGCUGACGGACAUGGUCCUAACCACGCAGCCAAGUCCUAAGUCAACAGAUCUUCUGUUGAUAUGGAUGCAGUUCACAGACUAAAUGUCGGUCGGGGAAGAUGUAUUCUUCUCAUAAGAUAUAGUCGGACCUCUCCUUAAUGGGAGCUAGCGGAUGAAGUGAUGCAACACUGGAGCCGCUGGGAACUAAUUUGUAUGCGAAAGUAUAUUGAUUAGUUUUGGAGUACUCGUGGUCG; settings: 30 °C;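 also: selection with 25 µg/mL kanamycin versus none on LB agar overnight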
outcome measure: self-splicing fitness (ln)

sequence_chain=UUUCAGCAAUAUUACGGACA outcome_measure="self-splicing fitness (ln)" result=-0.569
sequence_chain=AAAUAGCAAUAUUACGUUAC outcome_measure="self-splicing fitness (ln)" result=-3.44
sequence_chain=AAUAAGCAAUAUUACGGAAA outcome_measure="self-splicing fitness (ln)" result=-1.5
sequence_chain=UCACAGCAAUAUUACGCGGG outcome_measure="self-splicing fitness (ln)" result=-3.28
sequence_chain=ACAUAGCAAUAUUACGGCAU outcome_measure="self-splicing fitness (ln)" result=-1.06
sequence_chain=GUCCAGCAAUAUUACGUCCC outcome_measure="self-splicing fitness (ln)" result=-0.702
sequence_chain=GAACAGCAAUAUUACGUCCG outcome_measure="self-splicing fitness (ln)" result=-1.5
sequence_chain=GACUAGCAAUAUUACGAAGG outcome_measure="self-splicing fitness (ln)" result=-2.64
sequence_chain=CCCUAGCAAUAUUACGACAA outcome_measure="self-splicing fitness (ln)" result=-3.22
sequence_chain=UGCAAGCAAUAUUACGUUUG outcome_measure="self-splicing fitness (ln)" result=-4.16
sequence_chain=GUUCAGCAAUAUUACGCAAC outcome_measure="self-splicing fitness (ln)" result=-2.96
sequence_chain=GCCGAGCAAUAUUACGUGCU outcome_measure="self-splicing fitness (ln)" result=-3.92
sequence_chain=UUUGAGCAAUAUUACGACAG outcome_measure="self-splicing fitness (ln)" result=-2.8
sequence_chain=AUUCAGCAAUAUUACGCCCC outcome_measure="self-splicing fitness (ln)" result=0.0239
sequence_chain=CAUUAGCAAUAUUACGCCUG outcome_measure="self-splicing fitness (ln)" result=-1.4
sequence_chain=UAGUAGCAAUAUUACGAAUG outcome_measure="self-splicing fitness (ln)" result=-2.77

* * *

assay: self-splicing fitness, log relative to wild type (ln ratio); higher = more splicing; Tetrahymena group I intron in knt gene, E. coli kanamycin selection, DiMSum; sequences stand for … in CUCUCU…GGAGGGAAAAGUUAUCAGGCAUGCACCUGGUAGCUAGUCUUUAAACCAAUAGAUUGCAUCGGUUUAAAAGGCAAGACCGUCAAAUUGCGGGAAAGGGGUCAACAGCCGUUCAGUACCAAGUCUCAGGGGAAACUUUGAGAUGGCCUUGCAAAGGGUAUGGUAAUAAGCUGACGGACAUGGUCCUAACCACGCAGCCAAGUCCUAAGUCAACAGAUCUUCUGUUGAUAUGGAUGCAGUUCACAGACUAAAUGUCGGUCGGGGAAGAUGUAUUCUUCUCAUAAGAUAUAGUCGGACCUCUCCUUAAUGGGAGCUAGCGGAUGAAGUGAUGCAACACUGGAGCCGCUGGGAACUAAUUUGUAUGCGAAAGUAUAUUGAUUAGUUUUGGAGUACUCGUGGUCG; details: 30 °C
outcome measure: self-splicing fitness (ln)

sequence_chain=UCCCAGCAAUAUUACGGCUC quantitative_readout=-2.83
sequence_chain=CUAUAGCAAUAUUACGUUUG quantitative_readout=-1.38
sequence_chain=CUAUAGCAAUAUUACGAAUU quantitative_readout=-2.02
sequence_chain=GUUGAGCAAUAUUACGUCUG quantitative_readout=-2.34
sequence_chain=GUGGAGCAAUAUUACGAUUG quantitative_readout=-1.98
sequence_chain=ACAGAGCAAUAUUACGAAUG quantitative_readout=-3.82
sequence_chain=CUUCAGCAAUAUUACGCCAC quantitative_readout=-2.72
sequence_chain=UCCGAGCAAUAUUACGUGCA quantitative_readout=-1.45
sequence_chain=UCCUAGCAAUAUUACGUUUU quantitative_readout=-3.41
sequence_chain=CAUAAGCAAUAUUACGAUUU quantitative_readout=-2.47
sequence_chain=AUUCAGCAAUAUUACGAUUC quantitative_readout=-1.62
sequence_chain=UUACAGCAAUAUUACGUCCG quantitative_readout=-1.53
sequence_chain=GACAAGCAAUAUUACGGACC quantitative_readout=-1.32
sequence_chain=UAUCAGCAAUAUUACGCUUU quantitative_readout=-1.48
sequence_chain=UGAAAGCAAUAUUACGAUUC quantitative_readout=-2.53
sequence_chain=CCGCAGCAAUAUUACGGUAG quantitative_readout=-2.16
